Recorded amyloid nucleation score values for a group of substances are listed next.
assay: amyloid nucleation score (Sup35N fusion, yeast selection) (log enrichment); library NNK2; higher = more nucleation; inactive = no reads after selection;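 further: zero at mode of non-aggregating sequences after 7 days selection at 30°C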

- substance: "TSGLAGGDWNWAS"
  amyloid nucleation score: 0.314
- substance: "TMYVREYSFYFLYNVDITRG"
  amyloid nucleation score: 0.649
- substance: "INLISSYHFGELTCATSYWR"
  amyloid nucleation score: 4.77
- substance: "FRHCTFRLFHAHK"
  amyloid nucleation score: -0.378
- substance: "IIYYMTVCQDSIDRIVPFCN"
  amyloid nucleation score: 2.01
- substance: "VIIGIFCNSKSS"
  amyloid nucleation score: 4.33
- substance: "CRKCFT"
  amyloid nucleation score: 0.717
- substance: "TMRVHRYRTN"
  amyloid nucleation score: -0.493
- substance: "ATQRHVSTGKSGSN"
  amyloid nucleation score: 0.606
- substance: "FKSLVVSLCIPSDMNNLKCS"
  amyloid nucleation score: -0.474
- substance: "FYLYFIYGSVCSLSRFNPIR"
  amyloid nucleation score: 1.53
- substance: "LAFAILFPFGSLRDGST"
  amyloid nucleation score: 0.585
- substance: "PNIIGKLGNLNSLVLC"
  amyloid nucleation score: 0.382
- substance: "SLKEESFESVMNVG"
  amyloid nucleation score: 3.87
- substance: "FYMYAFNYYSFY"
  amyloid nucleation score: 2.91
- substance: "RIDVAI"
  amyloid nucleation score: -0.457

====

experiment: amyloid nucleation score (Sup35N fusion, yeast selection) (log enrichment); library NNK2; higher = more nucleation; inactive = no reads after selection
Classify by measured amyloid nucleation score: Met if it is equal to or exceeds 0.2, Not met if it is smaller.

- substance: "SKYKRLYVGTNDIIQLDWSN"
  label-value: "Met"
- substance: "DSILLSLCPTNCFKN"
  label-value: "Not met"
- substance: "YINLIWFSYMFGESFARGQR"
  label-value: "Met"
- substance: "NTFGLEILRGWSYVCLGRRR"
  label-value: "Met"
- substance: "MVCVELFWFARLSLPGA"
  label-value: "Met"
- substance: "GFRVVCHILALCRYGTCLEI"
  label-value: "Not met"
- substance: "SSYTMEPPHVRA"
  label-value: "Not met"
- substance: "GRYNVDFKSIMRYIECGKTA"
  label-value: "Not met"
- substance: "WIWVMWNKLCDSPDVWLANW"
  label-value: "Met"
- substance: "NETCGYLNKNWLL"
  label-value: "Not met"
- substance: "WLMCMPILRSCWMSSG"
  label-value: "Met"
- substance: "FSLPFC"
  label-value: "Met"
- substance: "RDNFLNEY"
  label-value: "Not met"
- substance: "KSQILACYNQLP"
  label-value: "Met"
- substance: "KDGLTISRIQITLIKRTLVV"
  label-value: "Not met"
- substance: "AVALYVSDSQDHPGNRNVLV"
  label-value: "Met"
- substance: "GFVMSYGRGLLS"
  label-value: "Met"
- substance: "SFMGEK"
  label-value: "Not met"
- substance: "HYCYRHIGRLQMWMKSGLHA"
  label-value: "Met"
- substance: "VNAEGTVMQSWHCHCDMSVL"
  label-value: "Met"
- substance: "RLFRFPNVLHDLICNMYICA"
  label-value: "Met"
- substance: "LYLTSNIFLCLIYDL"
  label-value: "Met"
- substance: "QGSKDRSYINKYRDRFCLTD"
  label-value: "Not met"
- substance: "NSITSRYNGTDGPESVSQ"
  label-value: "Not met"
- substance: "RRGKFEAANSWGD"
  label-value: "Met"
- substance: "LGSYVACPRDTKDYQNNSMC"
  label-value: "Not met"
- substance: "CRARNCVRLW"
  label-value: "Not met"
- substance: "DSVGMVRTLVWDWGQATNGR"
  label-value: "Met"
- substance: "RRFLNGFFRVQRLRYRHPFI"
  label-value: "Not met"
- substance: "HYQWQYACLWRCVTVRGSDQ"
  label-value: "Met"
- substance: "PQSWCFFPNFDKGLVLVRRQ"
  label-value: "Met"
- substance: "YVEVLSKVAWASDCSRIEYA"
  label-value: "Not met"
- substance: "SIRLYHYKFALRERKV"
  label-value: "Met"
- substance: "YVVEHQLMYAVWLFALGGSN"
  label-value: "Met"
